System: Rattus norvegicus
Experiment: Antiallergic activity in Wistar rat assessed as inhibition of ovalbumin-induced passive cutaneous anaphylaxis reaction at 3 mg/kg, iv treated after 48 hrs of ovalbumin challenge measured after 30 mins
Assay type: functional
PROPERTY_NAME: inhibition in vivo at 3 mg/kg (%)
Give a bare numeral; the unit % is implied.

input: Give the reported inhibition in vivo at 3 mg/kg for this molecule. CN(C1CCc2ccccc2C1)C1CC(=O)c2ccccc21 (stereo not given)
output: 98

input: Supply measured inhibition in vivo at 3 mg/kg of O=C1CC(N(Cc2ccccc2)C2CCc3ccccc3C2)c2ccccc21 (stereo not given) in your reply.
output: 79

input: Identify measured inhibition in vivo at 3 mg/kg associated with O=C(O)c1cc(=O)c2c(OCC(O)COc3cccc4oc(C(=O)O)cc(=O)c34)cccc2o1 [CROMOLYN SODIUM]
output: 99

input: Indicate the recorded inhibition in vivo at 3 mg/kg value for this molecule: CN(C1CCCc2ccccc21)C1CCC(=O)c2ccccc21 (stereo not given)
output: 29

input: Determine from records and report inhibition in vivo at 3 mg/kg for COc1ccc2c(c1)C(N(C)C1CCCc3ccccc31)CC2=O (stereo not given)
output: 62

----------
Tested on: Rattus norvegicus
Assay: Antiallergic activity in Wistar rat assessed as inhibition of ovalbumin-induced passive cutaneous anaphylaxis reaction at 3 mg/kg, iv treated after 48 hrs of ovalbumin challenge measured after 30 mins
Type: functional
PROPERTY_NAME: inhibition in vivo at 3 mg/kg (%)
Quick note: give the figure in %, leave out the unit.

input: Identify the reported inhibition in vivo at 3 mg/kg for the following entry. C=CCN(C1CCCc2ccccc21)C1CC(=O)c2ccccc21 (stereo not given)
output: 72

input: Tell me its inhibition in vivo at 3 mg/kg given COc1cc(CN(C2CCc3ccccc3C2)C2CC(=O)c3ccccc32)cc(OC)c1OC (stereo not given) as the entry.
output: 70

input: Give me measured inhibition in vivo at 3 mg/kg, please, for this compound: C=CCN(C1CCc2ccccc2C1)C1CC(=O)c2ccccc21 (stereo not given)
output: 82

input: Indicate the recorded inhibition in vivo at 3 mg/kg value for this compound: CN(C1CCCc2ccccc21)C1CC(=O)c2ccccc21 (stereo not given)
output: 13

input: Quick one: give measured inhibition in vivo at 3 mg/kg for Cc1ccc(CN(C2CCc3ccccc3C2)C2CC(=O)c3ccccc32)cc1 (stereo not given)
output: 73

Taken from ChEMBL document CHEMBL1154590.
